Values compiled from paper PMC9911399.

Task for the reader: assign each of the following binders its reported binding signal.
Target: T1, RBFOX1 RRM (Homo sapiens, UniProt Q9NWB1 109-208)
T1 sequence: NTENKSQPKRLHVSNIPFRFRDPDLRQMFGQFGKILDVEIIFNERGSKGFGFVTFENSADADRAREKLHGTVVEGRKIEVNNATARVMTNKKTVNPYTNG
Assay: EMSA; HiTS-Eq, 1 nM pool, 10 min; buffer printed only for the single-RNA assays: 10 mM Tris pH 7.5, 150 mM NaCl, 3.4 mM EDTA, 0.001% NP-40, 30 C
Settings: tags: His6 N-terminal (pET28a); label: 5' 32P
In all, about 16,000 sequences were measured (“ka relative to ugcaugu”: median about 0.0091, highest 2% from about 0.032 on). This is one part of a sample in which the highest values are shown more often than they occur.

In one line, give reported binding signal of the entry ACUGACU (DNA:RNA) RNA: GGGAGACCGGAAUUCAGAUUGUCCACUGACUUUAAAUCCCGUCGUAGCCACCA DNA 1: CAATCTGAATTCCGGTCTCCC DNA 2: TGGTGGCTACGACGGGATT .
0.00677 KA relative to UGCAUGU

In one line, give reported binding signal of the entry GAAUCAG (DNA:RNA) RNA: GGGAGACCGGAAUUCAGAUUGUCCGAAUCAGUUAAAUCCCGUCGUAGCCACCA DNA 1: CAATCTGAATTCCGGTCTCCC DNA 2: TGGTGGCTACGACGGGATT .
0.00941 KA relative to UGCAUGU

In one line, give reported binding signal of the entry CGCUGGA (DNA:RNA) RNA: GGGAGACCGGAAUUCAGAUUGUCCCGCUGGAUUAAAUCCCGUCGUAGCCACCA DNA 1: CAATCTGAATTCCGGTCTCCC DNA 2: TGGTGGCTACGACGGGATT .
0.00997 KA relative to UGCAUGU

In one line, give reported binding signal of the entry UGACUUU (DNA:RNA) RNA: GGGAGACCGGAAUUCAGAUUGUCCUGACUUUUUAAAUCCCGUCGUAGCCACCA DNA 1: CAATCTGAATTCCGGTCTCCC DNA 2: TGGTGGCTACGACGGGATT .
0.0147 KA relative to UGCAUGU

In one line, give reported binding signal of the entry ACAUAGU (DNA:RNA) RNA: GGGAGACCGGAAUUCAGAUUGUCCACAUAGUUUAAAUCCCGUCGUAGCCACCA DNA 1: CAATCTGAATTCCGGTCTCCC DNA 2: TGGTGGCTACGACGGGATT .
0.00187 KA relative to UGCAUGU

In one line, give reported binding signal of the entry UGGGGGU (DNA:RNA) RNA: GGGAGACCGGAAUUCAGAUUGUCCUGGGGGUUUAAAUCCCGUCGUAGCCACCA DNA 1: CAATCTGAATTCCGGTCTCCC DNA 2: TGGTGGCTACGACGGGATT .
0.0229 KA relative to UGCAUGU

In one line, give reported binding signal of the entry GACCAGC (DNA:RNA) RNA: GGGAGACCGGAAUUCAGAUUGUCCGACCAGCUUAAAUCCCGUCGUAGCCACCA DNA 1: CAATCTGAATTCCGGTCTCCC DNA 2: TGGTGGCTACGACGGGATT .
0.00826 KA relative to UGCAUGU

In one line, give reported binding signal of the entry GAGGGCA (DNA:RNA) RNA: GGGAGACCGGAAUUCAGAUUGUCCGAGGGCAUUAAAUCCCGUCGUAGCCACCA DNA 1: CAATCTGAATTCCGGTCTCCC DNA 2: TGGTGGCTACGACGGGATT .
0.0138 KA relative to UGCAUGU

In one line, give reported binding signal of the entry ACCAGGG (DNA:RNA) RNA: GGGAGACCGGAAUUCAGAUUGUCCACCAGGGUUAAAUCCCGUCGUAGCCACCA DNA 1: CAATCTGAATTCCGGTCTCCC DNA 2: TGGTGGCTACGACGGGATT .
0.00782 KA relative to UGCAUGU
